- test system: Tyrosine-protein kinase Lck (Homo sapiens) (UniProt P06239)
- Sequence (P06239 2-509 limits assumed): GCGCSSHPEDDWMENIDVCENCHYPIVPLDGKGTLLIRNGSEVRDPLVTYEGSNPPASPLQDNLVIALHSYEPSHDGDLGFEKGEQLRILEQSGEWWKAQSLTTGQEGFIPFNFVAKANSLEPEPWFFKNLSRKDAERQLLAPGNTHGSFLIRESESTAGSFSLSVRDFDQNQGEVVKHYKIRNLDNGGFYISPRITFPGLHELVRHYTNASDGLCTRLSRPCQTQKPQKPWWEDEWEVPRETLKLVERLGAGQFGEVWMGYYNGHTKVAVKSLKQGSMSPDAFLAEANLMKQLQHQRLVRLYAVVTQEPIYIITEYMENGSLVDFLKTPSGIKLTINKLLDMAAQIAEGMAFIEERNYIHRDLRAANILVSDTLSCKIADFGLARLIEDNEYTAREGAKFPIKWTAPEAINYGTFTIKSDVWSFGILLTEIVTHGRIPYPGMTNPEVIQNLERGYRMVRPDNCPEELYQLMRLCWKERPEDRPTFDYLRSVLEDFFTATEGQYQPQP
- measurement conditions: at 1 µM
Consider the following compounds and their measured inhibition readings.

1. O=C(Nc1n[nH]c2cc(-c3ccc(F)cc3)ccc12)C1CC1: 7.59%
2. COc1ccc(-c2cc(-c3c[nH]nc3-c3ccccn3)ccn2)cc1: 5.16%
3. NS(=O)(=O)c1ccc(N/N=C2\C(=O)Nc3ccc4ncccc4c32)cc1: 30.1%
4. CC(C)(CO)CNC(=O)c1ccc2c(c1)/C(=N/Nc1ccc(S(N)(=O)=O)cc1)C(=O)N2: 3.08%
5. FC(F)(F)c1cccc(-c2nn3ncccc3c2-c2ccnc(Nc3ccc4c(c3)OCCO4)n2)c1: 45.8%
6. COc1cc2c(cc1Nc1nc(Nc3ccsc3C(N)=O)c3cc[nH]c3n1)N(C(=O)CN(C)C)CCC2(C)C: 4.76%
7. O=C(O[C@H]1CN[C@H](C#Cc2cc3ncnc(Nc4ccc(Cc5ccccc5)cc4)c3s2)C1)N1CCOCC1: 8.13%
8. CCn1c(-c2nonc2N)nc2c(C#CC(C)(C)O)nc(OC[C@H](N)c3ccccc3)cc21: 3.65%

q: // map CCOc1ccc2c(-c3ccnc(Nc4cccc(C(F)(F)F)c4)n3)cnn2n1 to recorded inhibition (system: Tyrosine-protein kinase Lck (Homo sapiens) (UniProt P06239));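 also: reported Lck percent inhibition is a mean value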
a: 7.3%

q: Give recorded inhibition with Tyrosine-protein kinase Lck (Homo sapiens) (UniProt P06239) for the following compound: Fc1ccc(-c2nn3ncccc3c2-c2ccnc(Nc3ccc4c(c3)OCCO4)n2)cc1
a: 85.1%

q: Provide the documented inhibition with Tyrosine-protein kinase Lck (Homo sapiens) (UniProt P06239) as the system for CCNC(=O)O[C@H]1CN[C@H](C#Cc2cc3ncnc(Nc4ccc(OCc5cccc(F)c5)c(Cl)c4)c3s2)C1
a: 3.76%

###

- test system: Tyrosine-protein kinase TXK (Homo sapiens);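 also: value given is the mean percent inhibition of TXK kinase activity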
- Sequence (whole entry): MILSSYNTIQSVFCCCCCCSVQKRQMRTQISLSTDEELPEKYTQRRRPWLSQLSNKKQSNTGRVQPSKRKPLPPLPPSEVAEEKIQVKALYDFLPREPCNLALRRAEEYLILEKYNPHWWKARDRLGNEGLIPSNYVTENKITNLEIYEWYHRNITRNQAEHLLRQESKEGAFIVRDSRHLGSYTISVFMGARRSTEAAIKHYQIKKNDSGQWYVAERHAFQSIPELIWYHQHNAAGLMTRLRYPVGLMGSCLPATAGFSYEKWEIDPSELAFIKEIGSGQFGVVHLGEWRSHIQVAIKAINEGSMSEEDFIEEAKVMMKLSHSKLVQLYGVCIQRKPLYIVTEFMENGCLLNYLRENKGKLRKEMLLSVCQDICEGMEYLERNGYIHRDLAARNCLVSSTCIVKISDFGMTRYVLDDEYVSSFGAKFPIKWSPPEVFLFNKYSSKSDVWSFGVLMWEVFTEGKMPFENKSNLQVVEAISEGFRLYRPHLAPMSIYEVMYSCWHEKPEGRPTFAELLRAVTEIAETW
- measurement conditions: at 1 µM
quantity measured: inhibition
Please state the value followed by its unit.

q: Requested read-out: inhibition. Entry: CNC(=O)c1cc(-c2ccc(F)cc2)cc(-c2ccc(S(=O)(=O)N3CCCC3)cc2)c1N
a: 2.22%

###

- test system: Insulin-like growth factor 1 receptor (Homo sapiens) (UniProt P08069);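 also: each value is a mean percent inhibition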
- Sequence (P08069 31-736 limits assumed): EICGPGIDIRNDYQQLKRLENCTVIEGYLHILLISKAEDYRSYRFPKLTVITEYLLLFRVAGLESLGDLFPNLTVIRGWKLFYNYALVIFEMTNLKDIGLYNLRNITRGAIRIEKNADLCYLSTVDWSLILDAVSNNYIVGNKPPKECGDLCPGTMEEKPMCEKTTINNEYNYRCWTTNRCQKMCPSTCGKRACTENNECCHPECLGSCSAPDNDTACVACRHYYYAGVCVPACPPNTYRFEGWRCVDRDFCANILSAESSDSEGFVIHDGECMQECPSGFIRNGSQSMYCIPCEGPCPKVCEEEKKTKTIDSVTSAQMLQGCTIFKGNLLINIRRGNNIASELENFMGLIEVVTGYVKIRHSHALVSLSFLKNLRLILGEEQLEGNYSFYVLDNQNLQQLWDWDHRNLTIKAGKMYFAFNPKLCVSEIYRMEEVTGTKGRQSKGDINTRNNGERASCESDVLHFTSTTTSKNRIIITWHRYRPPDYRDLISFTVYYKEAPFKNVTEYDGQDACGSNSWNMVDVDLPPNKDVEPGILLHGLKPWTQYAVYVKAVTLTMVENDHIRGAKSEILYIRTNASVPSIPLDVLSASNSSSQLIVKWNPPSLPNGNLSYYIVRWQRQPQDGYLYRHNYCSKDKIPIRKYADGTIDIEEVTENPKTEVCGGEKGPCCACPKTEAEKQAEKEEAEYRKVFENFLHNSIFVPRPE
- Sequence (P08069 741-1367 limits assumed): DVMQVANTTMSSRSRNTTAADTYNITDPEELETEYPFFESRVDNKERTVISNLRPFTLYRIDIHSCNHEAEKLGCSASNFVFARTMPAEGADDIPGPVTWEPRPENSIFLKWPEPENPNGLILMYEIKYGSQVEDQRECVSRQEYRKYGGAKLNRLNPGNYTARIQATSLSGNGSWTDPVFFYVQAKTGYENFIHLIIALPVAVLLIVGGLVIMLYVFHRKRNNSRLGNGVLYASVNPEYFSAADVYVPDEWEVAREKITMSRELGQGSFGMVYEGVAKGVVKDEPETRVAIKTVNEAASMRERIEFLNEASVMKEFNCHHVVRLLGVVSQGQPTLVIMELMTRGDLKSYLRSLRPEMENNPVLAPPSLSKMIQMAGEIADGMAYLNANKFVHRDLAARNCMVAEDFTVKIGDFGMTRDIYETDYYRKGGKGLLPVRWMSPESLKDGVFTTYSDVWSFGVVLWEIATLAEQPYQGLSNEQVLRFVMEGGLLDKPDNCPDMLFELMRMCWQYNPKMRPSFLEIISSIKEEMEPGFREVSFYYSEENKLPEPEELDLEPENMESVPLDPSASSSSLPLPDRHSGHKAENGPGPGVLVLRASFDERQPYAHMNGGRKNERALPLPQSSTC
- measurement conditions: at 1 µM
// reported inhibition for each item listed
Kindly answer with a numeric value in %, unit omitted.

1. COc1ccc2[nH]c3c4[nH]c5ccc(OC)cc5c4c4c(c3c2c1)C(=O)NC4=O: 4.22
2. CC1=C(C(=O)Nc2cc(Cl)c3[nH]ncc3c2)C(c2ccc(C(F)(F)F)cc2)CC(=O)N1 (stereo unspecified): 2.67
3. COc1ccc2c(-c3ccnc(Nc4cccc(OC(F)(F)F)c4)n3)cnn2n1: 5.36
4. CN1CCC(n2cnc(-c3ccc(F)cc3)c2-c2ccnc(Nc3ccccc3)n2)CC1: 1.68

q: For the molecule shown here, Clc1ccc(-c2nn3ncccc3c2-c2ccnc(Nc3ccccc3)n2)cc1 , give the reported inhibition.
a: 5.4

q: Find the recorded inhibition belonging to c1ccc(-c2nc3n(c2-c2ccc4c(c2)OCO4)CCC3)nc1 and report it.
a: 8.89

q: For the molecule O=S(=O)(CCNCc1ccc(-c2ccc3ncnc(Nc4ccc(OCc5cccc(F)c5)c(Cl)c4)c3c2)o1)c1ccccc1 , what inhibition is on record?
a: 7.55

q: Value lookup for inhibition; key = N#Cc1c(NC(=O)CN2CCOCC2)sc2c1CCCC2
a: 5.33

q: Which inhibition is listed for COc1cc2ncn(-c3cc(OCc4ccccc4C(F)(F)F)c(C(=O)N(C)C)s3)c2cc1OC ?
a: -0.15

q: Query: inhibition; subject: NS(=O)(=O)c1ccc(Nc2ncc(-c3ccccc3)o2)cc1
a: 3.81

q: Quick check: inhibition of COc1ccc(CNC(=O)c2ccc(-c3cc(-c4nnc(C)o4)ccc3C)cc2)cc1 ?
a: 0.47

q: Consider the molecule O=C(Nc1n[nH]c2cc(-c3ccc(F)cc3)ccc12)C1CC1 and give its measured inhibition.
a: 0.88
